PROTOCOL_TEXT: Tissue distribution of curcumin and THC at necropsy 15 minutes post-infusion
Set-up: species or system Beagle dogs
SETUP_CONDITIONS: both sexes, beagle, dog, in vivo, 10 mg/kg, Eight hour infusion; H3PO4 stabilized; read-out: Average tissue concentration, Hippocampus
PROPERTY_LABEL: concentration at 15 min (ng/g)
Numbers only, in ng/g.

Q) Any idea what concentration at 15 min was measured for COc1cc(CCC(=O)CC(=O)CCc2ccc(O)c(OC)c2)ccc1O [THC, tetrahydrocurcumin] ?
A) 1.12

###

PROTOCOL_TEXT: Tissue distribution of curcumin and THC at necropsy 15 minutes post-infusion
Set-up: species or system Beagle dogs
SETUP_CONDITIONS: both sexes, beagle, dog, in vivo, 10 mg/kg, Table 14, 2 hour infusion; −H3PO4; read-out: Tissue analysis, Spleen
PROPERTY_LABEL: concentration at 15 min

Q) Any idea what concentration at 15 min was measured for COc1cc(CCC(=O)CC(=O)CCc2ccc(O)c(OC)c2)ccc1O [THC, tetrahydrocurcumin] ?
A) 1.35 ng/g

###

PROTOCOL_TEXT: Tissue distribution of curcumin and THC at necropsy 15 minutes post-infusion
Design: species or system Beagle dogs
SETUP_CONDITIONS: both sexes, beagle, dog, in vivo, 10 mg/kg, Table 14, 2 hour infusion; −H3PO4; read-out: Tissue analysis, Pancreas
PROPERTY_LABEL: concentration at 15 min

Q) Any idea what concentration at 15 min was measured for COc1cc(CCC(=O)CC(=O)CCc2ccc(O)c(OC)c2)ccc1O [THC, tetrahydrocurcumin] ?
A) 2.01 ng/g

###

PROTOCOL_TEXT: in vivo
Assay type: in vivo, Beagle dogs
SETUP_CONDITIONS: both sexes, Beagle, dog, in vivo, iv, 10 mg/kg
PROPERTY_LABEL: clearance (mL/min/kg)
Answers are plain numbers, in mL/min/kg.

Q) Any idea what clearance was measured for COc1cc(/C=C/C(=O)CC(=O)/C=C/c2ccc(O)c(OC)c2)ccc1O [Curcumin, reference compound] ?
A) 343

###

PROTOCOL_TEXT: Tissue distribution of curcumin and THC at necropsy 15 minutes post-infusion
Set-up: species or system Beagle dogs
SETUP_CONDITIONS: both sexes, beagle, dog, in vivo, 10 mg/kg, 8 hour infusion; Plus H3PO4; read-out: Tissue level, Pancreas
Method: The test article will be administered to 8 Beagle dogs by intravenous infusion over two hours (Part A) or eight hours (Part B) as shown in Table 6. Multiple samples of tissue weighing approximately 1 gram were removed and snap frozen in the presence or absence of phosphoric acid (H3PO4). For all tissue samples, the levels of curcumin and THC were determined using a method developed by the Bioanalytical Department at Nucro-Technics. […]
PROPERTY_LABEL: concentration at 15 min (ng/g)
Numbers only, in ng/g.

Q) Any idea what concentration at 15 min was measured for COc1cc(CCC(=O)CC(=O)CCc2ccc(O)c(OC)c2)ccc1O [THC, tetrahydrocurcumin] ?
A) 1.34

###

PROTOCOL_TEXT: Tissue distribution of curcumin and THC at necropsy 15 minutes post-infusion
Set-up: species or system Beagle dogs
SETUP_CONDITIONS: both sexes, beagle, dog, in vivo, 10 mg/kg, 8 hour infusion; Plus H3PO4; read-out: Tissue level, Hippocampus
PROPERTY_LABEL: concentration at 15 min (ng/g)
Give bare numbers, in ng/g.

Q) Any idea what concentration at 15 min was measured for COc1cc(CCC(=O)CC(=O)CCc2ccc(O)c(OC)c2)ccc1O [THC, tetrahydrocurcumin] ?
A) 1.13

###

PROTOCOL_TEXT: Tissue distribution of curcumin and THC at necropsy 15 minutes post-infusion
Set-up: species or system Beagle dogs
SETUP_CONDITIONS: both sexes, beagle, dog, in vivo, 10 mg/kg, 2 hr infusion; H3PO4 stabilized; read-out: Kp [tissue]/[plasma], Hippocampus
PROPERTY_LABEL: Kp at 2 h
Answers are plain numbers.

Q) Any idea what Kp at 2 h was measured for COc1cc(CCC(=O)CC(=O)CCc2ccc(O)c(OC)c2)ccc1O [THC, tetrahydrocurcumin] ?
A) 0.0014

###

PROTOCOL_TEXT: Tissue distribution of curcumin and THC at necropsy 15 minutes post-infusion
Design: species or system Beagle dogs
SETUP_CONDITIONS: both sexes, beagle, dog, in vivo, 10 mg/kg, 8 hour infusion; No H3PO4; read-out: Tissue level, Hippocampus
PROPERTY_LABEL: concentration at 15 min (ng/g)
Numbers only, in ng/g.

Q) Any idea what concentration at 15 min was measured for COc1cc(CCC(=O)CC(=O)CCc2ccc(O)c(OC)c2)ccc1O [THC, tetrahydrocurcumin] ?
A) 0.01

###

PROTOCOL_TEXT: Tissue distribution of curcumin and THC at necropsy 15 minutes post-infusion
Parameters: species or system Beagle dogs
SETUP_CONDITIONS: both sexes, beagle, dog, in vivo, 10 mg/kg, Two hour infusion; H3PO4 stabilized; read-out: Average tissue concentration, Kidney
PROPERTY_LABEL: concentration at 15 min
Respond with a number, then the unit of measure.

Q) Any idea what concentration at 15 min was measured for COc1cc(CCC(=O)CC(=O)CCc2ccc(O)c(OC)c2)ccc1O [THC, tetrahydrocurcumin] ?
A) 4.25 ng/g

###

PROTOCOL_TEXT: Tissue distribution of curcumin and THC at necropsy 15 minutes post-infusion
Parameters: species or system Beagle dogs
SETUP_CONDITIONS: both sexes, beagle, dog, in vivo, 10 mg/kg, 2 hour infusion; No H3PO4; read-out: Tissue level, Urinary Bladder
PROPERTY_LABEL: concentration at 15 min (ng/g)
Answers are plain numbers, in ng/g.

Q) Any idea what concentration at 15 min was measured for COc1cc(CCC(=O)CC(=O)CCc2ccc(O)c(OC)c2)ccc1O [THC, tetrahydrocurcumin] ?
A) 0.84

###

PROTOCOL_TEXT: Plasma pharmacokinetics of curcumin and THC during and after intravenous infusion of liposomal curcumin
Assay type: in vivo, Beagle dogs
SETUP_CONDITIONS: both sexes, Beagle, dog, in vivo, 10 mg/kg, 1.25 mg/kg/hr; 2 hr; mean±SE; read-out: [Plasma]
Method: The results and analysis for the study are presented for intravenous infusion dosing of a total dose of 10 mg/kg infused over a period of either 2 or 8 hours. Plasma levels of curcumin and its metabolite, THC were measured at timed intervals post-dosing. […] Bioanalysis was performed on two sets of samples, one set that was treated with phosphoric acid and one set that was not treated with phosphoric acid. […] Values that were below the limit of quantification were assigned a value of 0. […]
PROPERTY_LABEL: concentration at 2 hr (ng/mL)
One number for each entry, in ng/mL.

Q) Any idea what concentration at 2 hr was measured for COc1cc(CCC(=O)CC(=O)CCc2ccc(O)c(OC)c2)ccc1O [THC, tetrahydrocurcumin] ?
A) 68

###

PROTOCOL_TEXT: Plasma pharmacokinetics of curcumin and THC during and after intravenous infusion of liposomal curcumin
Assay type: in vivo, Beagle dogs
SETUP_CONDITIONS: both sexes, Beagle, dog, in vivo, 10 mg/kg, 1.25 mg/kg/hr; 15 min; mean±SE; read-out: [Plasma + PO4]
PROPERTY_LABEL: concentration at 15 min (ng/mL)
Give bare numbers, in ng/mL.

Q) Any idea what concentration at 15 min was measured for COc1cc(CCC(=O)CC(=O)CCc2ccc(O)c(OC)c2)ccc1O [THC, tetrahydrocurcumin] ?
A) 59

###

PROTOCOL_TEXT: in vivo
Format: in vivo, Beagle dogs
SETUP_CONDITIONS: both sexes, beagle, dog, in vivo, iv, 10 mg/kg
PROPERTY_LABEL: clearance

Q) Any idea what clearance was measured for COc1cc(/C=C/C(=O)CC(=O)/C=C/c2ccc(O)c(OC)c2)ccc1O [Curcumin, reference compound] ?
A) 343 mL/min/kg

###

PROTOCOL_TEXT: Plasma pharmacokinetics of curcumin and THC during and after intravenous infusion of liposomal curcumin
Format: in vivo, Beagle dogs
SETUP_CONDITIONS: both sexes, Beagle, dog, in vivo, 10 mg/kg, 5 mg/kg/hr; 15 min; mean±SE; read-out: [Plasma + PO4]
PROPERTY_LABEL: concentration at 15 min
Respond with a number, then the unit of measure.

Q) Any idea what concentration at 15 min was measured for COc1cc(CCC(=O)CC(=O)CCc2ccc(O)c(OC)c2)ccc1O [THC, tetrahydrocurcumin] ?
A) 284 ng/mL

###

PROTOCOL_TEXT: Plasma pharmacokinetics of curcumin and THC during and after intravenous infusion of liposomal curcumin
Assay type: in vivo, Beagle dogs
SETUP_CONDITIONS: both sexes, beagle, dog, in vivo, iv; 2 hour i.v. infusion, total dose 10 mg/kg; fitted; read-out: t1/2(e) (converted)
PROPERTY_LABEL: half-life (min)
Numbers only, in min.

Q) Any idea what half-life was measured for COc1cc(CCC(=O)CC(=O)CCc2ccc(O)c(OC)c2)ccc1O [THC, tetrahydrocurcumin] ?
A) 30

###

PROTOCOL_TEXT: Tissue distribution of curcumin and THC at necropsy 15 minutes post-infusion
Parameters: species or system Beagle dogs
SETUP_CONDITIONS: both sexes, beagle, dog, in vivo, 10 mg/kg, 8 hour infusion; No H3PO4; read-out: Tissue level, Cortex, Brain
PROPERTY_LABEL: concentration at 15 min (ng/g)
Answers are plain numbers, in ng/g.

Q) Any idea what concentration at 15 min was measured for COc1cc(CCC(=O)CC(=O)CCc2ccc(O)c(OC)c2)ccc1O [THC, tetrahydrocurcumin] ?
A) 0.06
